Provenance of the data: paper PMC8947478

- procedure-text: Pharmacokinetic analysis of plasma after oral PCLX-001 (UHPLC-MS, two-compartment model)
- Assay type: in vivo, human
- experimental-parameters: human, plasma, po, 20 mg, patient, 20 mg oral, Day 1 single dose, plasma; read-out: Cmax
readout: Cmax (ng/mL)
Output spec: scalar in ng/mL, unitless text.

Query: Quick one: Cmax of "Cc1c(NS(=O)(=O)c2c(Cl)cc(-c3ccnc(N4CCNCC4)c3)cc2Cl)c(CC(C)C)nn1C" ?
Result: 278
